Biological target: CCKA receptor (Rattus norvegicus)
Construct: Pancreatic membranes were prepared in a similar way; from tissue; host or cells: rat pancreas membranes
Test: 125I-CCK-8 receptor binding assay, CCKA (rat pancreas)
Details: Table 3
pIC50: −log10 of the molar value.
Readout Type: pIC50

compound="CCN(c1cccc(C)c1)C1N=C(c2ccccc2)c2cc(Cl)ccc2NC1=O (stereo not drawn)" readout_relation== reported_result=6.48
compound="Cc1cccc(C)c1NC1N=C(c2ccccc2)c2cc(Cl)ccc2NC1=O (stereo not drawn)" readout_relation== reported_result=5.00
compound="O=C1Nc2ccc(Cl)cc2C(c2ccccc2)=NC1Nc1ccccc1[N+](=O)[O-] (stereo not drawn)" readout_relation=< reported_result=4.70
compound="Cc1ccc(NC2N=C(c3ccccc3)c3cc(Cl)ccc3NC2=O)cc1 (stereo not drawn)" readout_relation== reported_result=6.54
compound="COc1ccc(NC2N=C(c3ccccc3)c3cc(Cl)ccc3NC2=O)cc1 (stereo not drawn)" readout_relation=≤ reported_result=4.70
compound="O=C1Nc2ccc(Cl)cc2C(c2ccccc2)=NC1Nc1ccccc1 (stereo not drawn)" readout_relation== reported_result=6.62
compound="O=C1Nc2ccc(Cl)cc2C(c2ccccc2)=NC1Nc1ccccc1Cl (stereo not drawn)" readout_relation=< reported_result=4.70
compound="Cc1ccc(NC2N=C(c3ccccc3)c3cc(Cl)ccc3NC2=O)cc1C (stereo not drawn)" readout_relation== reported_result=7.82
compound="Cc1cc(C)cc(NC2N=C(c3ccccc3)c3cc(Cl)ccc3NC2=O)c1 (stereo not drawn)" readout_relation== reported_result=8.05
compound="O=C1Nc2ccc(Cl)cc2C(c2ccccc2)=NC1Nc1ccc([N+](=O)[O-])cc1 (stereo not drawn)" readout_relation=< reported_result=4.70
compound="COc1ccccc1NC1N=C(c2ccccc2)c2cc(Cl)ccc2NC1=O (stereo not drawn)" readout_relation=< reported_result=4.70
compound="Cc1cccc(NC2N=C(c3ccccc3)c3cc(Cl)ccc3NC2=O)c1C (stereo not drawn)" readout_relation== reported_result=7.74

###

Biological target: CCKA receptor (Rattus norvegicus, UniProt P30551)
Construct: Pancreatic membranes were prepared in a similar way; from tissue; host or cells: rat pancreas membranes
Sequence (P30551 1-444): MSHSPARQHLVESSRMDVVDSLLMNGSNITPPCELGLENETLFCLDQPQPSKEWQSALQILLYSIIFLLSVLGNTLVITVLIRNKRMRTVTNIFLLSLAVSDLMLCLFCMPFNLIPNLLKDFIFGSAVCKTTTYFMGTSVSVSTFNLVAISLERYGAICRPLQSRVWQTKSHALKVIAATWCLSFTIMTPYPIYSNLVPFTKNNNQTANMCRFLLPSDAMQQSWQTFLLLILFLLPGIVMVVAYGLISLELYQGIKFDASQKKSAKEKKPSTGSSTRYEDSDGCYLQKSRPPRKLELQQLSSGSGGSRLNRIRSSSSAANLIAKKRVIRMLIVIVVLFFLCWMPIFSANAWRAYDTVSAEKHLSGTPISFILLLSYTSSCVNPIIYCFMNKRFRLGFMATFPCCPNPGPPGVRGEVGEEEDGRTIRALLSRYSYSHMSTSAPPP
Experiment: 125I-CCK-8 receptor binding assay, CCKA (rat pancreas)
Settings: Table 3; ratio of IC50 values
Readout Type: Ratio CCKB:CCKA

molecule="Cc1ccc(NC2N=C(c3ccccc3)c3cc(Cl)ccc3NC2=O)cc1C (centres unmarked)" measured_on="CCKA receptor (Rattus norvegicus, UniProt P30551)" reported_result=61
molecule="Cc1ccc(NC2N=C(c3ccccc3)c3cc(Cl)ccc3NC2=O)cc1 (centres unmarked)" measured_on="CCKA receptor (Rattus norvegicus, UniProt P30551)" reported_result=16
molecule="CN(c1ccccc1)C1N=C(c2ccccc2)c2cc(Cl)ccc2NC1=O (centres unmarked)" measured_on="CCKA receptor (Rattus norvegicus, UniProt P30551)" reported_result=11
molecule="Cc1cc(C)cc(NC2N=C(c3ccccc3)c3cc(Cl)ccc3NC2=O)c1 (centres unmarked)" measured_on="CCKA receptor (Rattus norvegicus, UniProt P30551)" reported_result=322
molecule="COc1cccc(NC2N=C(c3ccccc3)c3cc(Cl)ccc3NC2=O)c1 (centres unmarked)" measured_on="CCKA receptor (Rattus norvegicus, UniProt P30551)" reported_result=450
molecule="O=C1Nc2ccc(Cl)cc2C(c2ccccc2)=NC1Nc1cccc([N+](=O)[O-])c1 (centres unmarked)" measured_on="CCKA receptor (Rattus norvegicus, UniProt P30551)" reported_result=545
molecule="CCN(c1cccc(C)c1)C1N=C(c2ccccc2)c2cc(Cl)ccc2NC1=O (centres unmarked)" measured_on="CCKA receptor (Rattus norvegicus, UniProt P30551)" reported_result=2
molecule="O=C1Nc2ccc(Cl)cc2C(c2ccccc2)=NC1Nc1ccccc1 (centres unmarked)" measured_on="CCKA receptor (Rattus norvegicus, UniProt P30551)" reported_result=17
molecule="O=C1Nc2ccc(Cl)cc2C(c2ccccc2)=NC1Nc1cccc(Cl)c1 (centres unmarked)" measured_on="CCKA receptor (Rattus norvegicus, UniProt P30551)" reported_result=23
molecule="Cc1cccc(N(C)C2N=C(c3ccccc3)c3cc(Cl)ccc3NC2=O)c1 (centres unmarked)" measured_on="CCKA receptor (Rattus norvegicus, UniProt P30551)" reported_result=9
molecule="Cc1cccc(NC2N=C(c3ccccc3)c3cc(Cl)ccc3NC2=O)c1C (centres unmarked)" measured_on="CCKA receptor (Rattus norvegicus, UniProt P30551)" reported_result=333
